Assignment: determine reported log P for the given compounds.
procedure.text: log P by HPLC (EEC Directive 79/831 Annex V.A8)
Assay type: physicochemical
condition.description: [c] LC-MS, neutral range, pH 7.8, 0.001 molar aqueous ammonium hydrogencarbonate and acetonitrile
One number for each entry.

# annotated cases, reported log P shown
compound | log P
Cc1cc(C(F)(F)F)nn1CC(=O)N1CCC(c2cccc(C(=O)NC(C)c3ccccc3Cl)n2)CC1 (racemic) [Example 16] | 3.75
Cc1cc(C(F)(F)F)nn1CC(=O)N1CCN(c2cccc(C(=O)N(C)C3CCCc4ccccc43)n2)CC1 (stereo not shown) [Example 147] | 3.59

Then there is this compound:
Consider the compound shown here: Cc1cc(C(F)(F)F)nn1CC(=O)N1CCN(c2cccc(C(=O)OCc3c(F)cccc3F)n2)CC1 [Example 74] What is its recorded log P? 3.55
